pIC50: −log10 of the molar value.
Endpoint summary: pIC50, system: Platelet-derived growth factor receptor beta (Homo sapiens), multiple sources combined.
Measure: pIC50

# Compound, Assay Target, Result
records = [
    ("Cc1cc(C(=O)Nc2cccc([C@H](C)Nc3cnc4cnn(C)c4n3)c2)ccc1C(=O)OC(C)C", "Platelet-derived growth factor receptor beta (Homo sapiens)", "> 6.52"),
    ("CCn1cc2ncc(N[C@@H](C)c3cc(NC(=O)c4ccc(Cl)c(C)c4)ccc3C)nc2n1", "Platelet-derived growth factor receptor beta (Homo sapiens)", "> 6.52"),
    ("Cc1cccc(C)c1-c1cc(C)c2nc(Nc3ccccc3)nnc2c1", "Platelet-derived growth factor receptor beta (Homo sapiens)", 6.20),
    ("Cc1cncc(C(=O)Nc2cccc([C@H](C)Nc3cnc4[nH]c(-c5cnn(C)c5)nc4n3)c2)c1", "Platelet-derived growth factor receptor beta (Homo sapiens)", "> 6.52"),
    ("Cc1cncc(C(=O)Nc2cccc([C@H](C)Nc3cnc4[nH]cc(C)c4n3)c2)c1", "Platelet-derived growth factor receptor beta (Homo sapiens)", "> 6.52"),
    ("Cc1cccc(C)c1-c1cc(C)c2nc(Nc3cccc(OCCN4CCN(C)CC4)c3)nnc2c1", "Platelet-derived growth factor receptor beta (Homo sapiens)", 7.16),
    ("CCn1cc2ncc(N[C@@H](C)c3cc(NC(=O)c4ccc(CN5CCN(C)CC5)c(Cl)c4)ccc3F)nc2n1", "Platelet-derived growth factor receptor beta (Homo sapiens)", "> 6.52"),
    ("Cc1c[nH]c2ncc(N[C@@H](C)c3cccc(NC(=O)c4cnc(C(F)(F)F)s4)c3)nc12", "Platelet-derived growth factor receptor beta (Homo sapiens)", "6.00 to 6.52"),
    ("Cc1ccc(F)c(NC(=O)Nc2ccc(Oc3ccnc4cc(C(=O)NCCCc5nn[nH]n5)sc34)cc2)c1", "Platelet-derived growth factor receptor beta (Homo sapiens)", 7.70),
    ("C[C@H](Nc1cnc2cn[nH]c2n1)c1cccc(NC(=O)c2cncc(C3CCC3)c2)c1", "Platelet-derived growth factor receptor beta (Homo sapiens)", "> 6.52"),
    ("CCOc1ccc(C(=O)Nc2cccc([C@H](C)Nc3cnc4cn(CC)nc4n3)c2)cn1", "Platelet-derived growth factor receptor beta (Homo sapiens)", "6.00 to 6.52"),
    ("CCn1cc2ncc(N[C@@H](C)c3cccc(NC(=O)c4cncc(C(C)(C)F)c4)c3)nc2n1", "Platelet-derived growth factor receptor beta (Homo sapiens)", "> 6.52"),
    ("CCn1cc2ncc(N[C@@H](C)c3cccc(NC(=O)Cc4cc(C)c(C)cn4)c3)nc2n1", "Platelet-derived growth factor receptor beta (Homo sapiens)", "≤ 6.00"),
    ("Cn1cc(-c2cc(Oc3cccc(NC(=O)c4ccc5[nH]cnc5c4)c3)ccn2)cn1", "Platelet-derived growth factor receptor beta (Homo sapiens)", "< 5.00"),
    ("CCn1cc2ncc(N[C@@H](C)c3cccc(NC(=O)c4cnc(NC(C)=O)s4)c3)nc2n1", "Platelet-derived growth factor receptor beta (Homo sapiens)", "≤ 6.00"),
    ("Cc1cccc(C(=O)Nc2cccc(C#Cc3ccc4nccn4n3)c2)c1", "Platelet-derived growth factor receptor beta (Homo sapiens)", 5.82),
    ("Cn1cc(-c2cc(Oc3ccc(NC(=O)C4(C(=O)NCc5ccccc5)CC4)cc3F)ccn2)cn1", "Platelet-derived growth factor receptor beta (Homo sapiens)", "> 5.00"),
    ("Cc1cncc(C(=O)Nc2cccc([C@H](C)Nc3cnc4cnn(-c5cccnc5)c4n3)c2)c1", "Platelet-derived growth factor receptor beta (Homo sapiens)", "> 6.52"),
    ("CCn1cc2ncc(N[C@@H](C)c3cc(NC(=O)c4cncc(C)c4)ccc3C)cc2n1", "Platelet-derived growth factor receptor beta (Homo sapiens)", "> 6.52"),
    ("CCn1cc2ncc(N[C@@H](C)c3cccc(NC(=O)Cc4cc(F)cc(F)c4)c3)nc2n1", "Platelet-derived growth factor receptor beta (Homo sapiens)", "6.00 to 6.52"),
    ("Cc1ccc(C(=O)N[C@H](CO)c2ccccc2)cc1NC(=O)c1cncc(-c2ccccc2)c1", "Platelet-derived growth factor receptor beta (Homo sapiens)", 7.92),
    ("Cc1ncc(C(=O)N[C@H]2CCCC[C@@H]2O)cc1/C=C(\\F)c1ccc(N)nc1", "Platelet-derived growth factor receptor beta (Homo sapiens)", 6.70),
    ("COc1ccc(-n2ccc3ncc(N[C@@H](C)c4cccc(NC(=O)c5cncc(C)c5)c4)nc32)cc1OC", "Platelet-derived growth factor receptor beta (Homo sapiens)", "> 6.52"),
    ("CCn1cc2ncc(N[C@@H](C)c3cccc(NC(=O)c4ccc(F)c(Cl)c4)c3)nc2n1", "Platelet-derived growth factor receptor beta (Homo sapiens)", "> 6.52"),
    ("Nc1ncnc2c1c(-c1cccc(O)c1)cn2C1CC(CN2CCCC2)C1 (centres unmarked)", "Platelet-derived growth factor receptor beta (Homo sapiens)", 6.92),
    ("CCNC(=O)c1cc2nccc(Oc3cccc(C(=O)Nc4cc(C)ccc4F)c3)c2s1", "Platelet-derived growth factor receptor beta (Homo sapiens)", 7.13),
    ("Cc1cncc(C(=O)Nc2cccc([C@H](C)Nc3cnc4[nH]cc(-c5cccnc5)c4n3)c2)c1", "Platelet-derived growth factor receptor beta (Homo sapiens)", "> 6.52"),
    ("C[C@H](Nc1cnc2cnn(C)c2n1)c1cccc(NC(=O)c2cncc(Cl)c2)c1", "Platelet-derived growth factor receptor beta (Homo sapiens)", "> 6.52"),
    ("N#CCn1cc(-c2cc(Oc3cccc(NC(=O)Nc4ccc(Cl)c(C(F)(F)F)c4)c3)ncn2)cn1", "Platelet-derived growth factor receptor beta (Homo sapiens)", "≥ 5.00"),
    ("Cc1cc(-c2cc(O)ccc2Cl)cc2nnc(Nc3ccc(C(=O)NCCN4CCCC4)o3)nc12", "Platelet-derived growth factor receptor beta (Homo sapiens)", 7.84),
    ("Cc1cncc(C(=O)Nc2cccc([C@H](C)Nc3cnc4cnn(-c5ccccc5)c4n3)c2)c1", "Platelet-derived growth factor receptor beta (Homo sapiens)", "> 6.52"),
    ("CC(C)c1cc(C(=O)Nc2cccc([C@H](C)Nc3cnc4cnn(C)c4n3)c2)nn1C", "Platelet-derived growth factor receptor beta (Homo sapiens)", "> 6.52"),
]

###

pIC50: −log10 of the molar value.
Endpoint summary: pIC50, system: UniProt:P09619, multiple sources combined.

# Compound, pIC50
records = [
    ("CCc1cncc(C(=O)Nc2cccc([C@H](C)Nc3cnc4cn[nH]c4n3)c2)c1", "> 6.52"),
    ("CCN1CCN(Cc2cncc(/C(F)=C/c3cc(C(=O)N[C@H]4CCCC[C@@H]4O)ccc3C)c2)CC1", 7.46),
    ("CCn1cc2ncc(N[C@@H](C)c3cccc(NC(=O)Cc4ccc5c(n4)OCCC5)c3)nc2n1", "≤ 6.00"),
    ("Cc1cccc(NC(=O)Nc2ccc(C#Cc3ccc4nccn4n3)cc2)c1", 7.10),
    ("CC(C)c1[nH]c(/C=C2\\C(=O)Nc3ccc(Br)cc32)c(-c2ccccc2)c1C(=O)NCCCN1CCCC1", 5.51),
    ("O=C(Nc1cccc(Oc2cc(-c3cnn(Cc4ccccc4)c3)ncn2)c1)Nc1ccc(Cl)c(C(F)(F)F)c1", "< 5.00"),
    ("CC(NC(=O)c1ccc(C2CC2)c(-c2ccc3nc(Nc4cnn(C5CC5)c4)ncc3c2)c1)c1cccc(C(F)(F)F)c1 (stereo not drawn)", "< 6.00"),
    ("Cn1cc(-c2cc(Oc3cccc(NC(=O)c4cccc(C(=O)c5ccccc5)c4)c3)ccn2)cn1", "< 5.00"),
    ("O=C(CCCCCCC(=O)Nc1cc(Oc2ccc(NC(=O)Nc3ccc(Cl)c(C(F)(F)F)c3)cc2)ccn1)NO", "> 7.00"),
    ("CCn1cc2ncc(N[C@@H](C)c3cccc(NC(=O)c4ccc(N5CCCC5)c(F)c4)c3)nc2n1", "> 6.52"),
    ("Cc1ccc(F)c(NC(=O)Nc2ccc(Oc3ccnc4cc(C(=O)NCCc5nn[nH]n5)sc34)cc2)c1", 7.72),
    ("COc1cc(C(=O)Nc2cccc([C@H](C)Nc3cnc4cnn(C)c4n3)c2)cnc1Cl", "> 6.52"),
    ("CC(=O)OC(C)OC(=O)c1ccc(C(=O)Nc2cccc([C@H](C)Nc3cnc4cnn(C)c4n3)c2)cc1C (stereo partly drawn)", "> 6.52"),
    ("COc1ccc(C(=O)Nc2cccc([C@H](C)Nc3cnc4cnn(C)c4n3)c2)cc1C", "> 6.52"),
    ("COc1ccc(Cn2ccc3ncc(N[C@@H](C)c4cccc(NC(=O)c5cncc(C)c5)c4)nc32)cc1OC", "≤ 6.00"),
]

###

Endpoint summary: IC50, system: Platelet-derived growth factor receptor beta (Homo sapiens), multiple sources combined.

# Compound, IC50
rows = [
    ("Cc1cncc(C(=O)Nc2ccc(F)c([C@H](C)Nc3cnc4cn(CC5CCNC5)nc4n3)c2)c1 (some centres unmarked)", "< 300 nM"),
    ("Cc1c(C(=O)NCCCN2CCCC2)[nH]c(/C=C2\\C(=O)Nc3ccc(F)cc32)c1C(=O)c1ccccc1", "71300 nM"),
    ("Cc1n[nH]c2ncc(N[C@@H](C)c3cccc(NC(=O)c4cncc(C(F)F)c4)c3)nc12", "< 300 nM"),
    ("CCn1cc2ncc(N[C@@H](C)c3cccc(NC(=O)c4ccc(C)o4)c3)nc2n1", "≥ 1000 nM"),
    ("CCn1cc2ncc(N[C@@H](C)c3cccc(NC(=O)c4cnc(C5CC5)s4)c3)nc2n1", "< 300 nM"),
    ("Cn1cc(-c2nccc(Oc3cccc(NC(=O)c4ccc(OC(F)(F)F)cc4)c3)n2)cn1", "> 10000 nM"),
    ("Cc1c(F)cc(C(=O)N[C@H]2CCCC[C@@H]2O)cc1NCc1cnc(N)nc1", "97 nM"),
    ("CCn1cc2ncc(N[C@@H](C)c3cc(NC(=O)Cc4ccc(C(F)(F)F)cn4)ccc3C)nc2n1", "300 to 1000 nM"),
]
